parameter_measured: IC50 (nM)
The reply should contain only the number, in nM.

Please tell me the measured IC50 for Cc1cc(SC2C(=O)CC(CCc3ncsc3C)(C(C)C)OC2=O)c(C(C)(C)C)cc1CO (centres undefined) ; system: Human immunodeficiency virus type 1 protease (Human immunodeficiency virus 1).
1.3

Tell me its IC50 on Human immunodeficiency virus type 1 protease (Human immunodeficiency virus 1): Cc1cc(SC2C(=O)CC(CCc3cscn3)(C(C)C)OC2=O)c(C(C)(C)C)cc1CO (centres undefined)
1.3

# return IC50 for Cc1cc(SC2C(=O)CC(CCc3nc(C(C)C)cs3)(C(C)C)OC2=O)c(C(C)(C)C)cc1CO (centres undefined) , test system: Human immunodeficiency virus type 1 protease (Human immunodeficiency virus 1)
14

Fetch value of IC50 on Human immunodeficiency virus type 1 protease (Human immunodeficiency virus 1) for Cc1cc(SC2C(=O)CC(CCc3ccsc3CO)(C(C)C)OC2=O)c(C(C)(C)C)cc1CO (centres undefined) .
14

Origin of values: BindingDB's records for doi:10.1021/jm0003844
